Tested on: HONE1 cell line
Assay: Cytotoxicity against human HONE1 cells after 48 hrs by MTT assay
Assay type: functional, cell-based
Conditions: HONE1, 48 h
Measure name: IC50

C=C1C(=O)O[C@@H]2[C@@H]3[C@@]4(C=C[C@@]3(C)[C@]3(C4)C(=O)O[C@@H]4[C@H]5C(C)=CC[C@H]5[C@](C)(O)C[C@H](OC(C)=O)[C@H]43)[C@](C)(O)CC[C@@H]12 = > 10 µM

The recorded IC50 for "C=C1C(=O)O[C@@H]2[C@@H]3[C@@]4(C=C[C@@]3(C)[C@]3(C4)C(=O)O[C@@H]4[C@H]5C(C)=CC[C@H]5[C@](C)(O)C[C@H](O)[C@H]43)[C@](C)(O)CC[C@@H]12" is > 10 µM

The recorded IC50 for "C/C=C(/C)C(=O)O[C@H]1C[C@@](C)(O)[C@@H]2CC(=O)C(C)=C2[C@H]2OC(=O)[C@@H](C)[C@H]12" is > 10 µM

The recorded IC50 for "C/C=C(\C)C(=O)O[C@H]1C[C@@](C)(O)[C@@H]2CC(=O)C(C)=C2[C@H]2OC(=O)[C@@H](C)[C@H]12" is > 10 µM

The recorded IC50 for "C=C1C(=O)O[C@@H]2[C@H]3C(C)=CC[C@H]3[C@](C)(O)C[C@H](OC(=O)/C(C)=C\C)[C@@H]12" is 7.6 µM

The recorded IC50 for "C=C1C(=O)O[C@@H]2[C@@H]3[C@@]4(C=C[C@@]3(C)[C@]3(C4)C(=O)O[C@@H]4[C@H]5C(C)=CC[C@H]5[C@](C)(O)C[C@H](OC(=O)/C(C)=C/C)[C@H]43)[C@](C)(O)CC[C@@H]12" is > 10 µM

The recorded IC50 for "CC1=CC[C@@H]2[C@H]1[C@H]1OC(=O)[C@@H](C)[C@@H]1[C@H](O)C[C@@]2(C)O" is > 10 µM
